# assay-remarks: qHTS of pediatric cancer cell lines to identify multiple opportunities for drug repurposing: Primary screen for BT-12 cells (AID 1347101); further: nearly all actives have a fitted effect of over 25% in size
# test-parameters: BT-12 viability, CellTiter-Glo luminescence, 48 h; series mostly up to 57.3 µM
Records with an inconclusive call do not appear. The source made the active and inactive calls. The call rests on the fitted dose curve; in most records, active means well fitted cell-killing curve with a large enough effect; inconclusive means small, poorly fitted or top-dose-only effect; inactive means flat fitted curve, though single readings scatter.
# valid calls are true (1) for active, false (0) for inactive; nothing else

COc1cc2nc(N3CCCN(C)CC3)nc(NC3CCN(Cc4ccccc4)CC3)c2cc1OC	true (1)
O=C(O)C1CCCN(CCC=C(c2ccccc2)c2ccccc2)C1 (centres undefined)	false (0)

Turning to the following compound.
Fill in: this test's call for C[C@@H](CN1CC(=O)NC(=O)C1)N1CC(=O)NC(=O)C1 is ___
false (0)

Source listed as PubChem BioAssay (NCATS).
